Tested on: K562 CRISPRi cells
Test Protocol: Perturb-seq pooled growth measurement (sgRNA counts, growth phenotype γ, relative activity)
Format: cell-based, human
Measurement Parameters: sequencing read counts; 5 days of growth (day seven after transduction)
Quantity Name: Perturb-seq pooled growth sgRNA counts, d5
Give only the figure.

CDC23_−_137548987.23-P1P2_04: sgRNA targeting CDC23, GACAGCCAACGGGACCATGG, SEQ ID NO: 100 (listed as DNA, chemistry not fully specified)	1646
CDC23_−_137548987.23-P1P2_00: sgRNA targeting CDC23, GACAGCCACCGGGACCATGG, SEQ ID NO: 18 (listed as DNA, chemistry not fully specified)	757

Record request: Perturb-seq pooled growth sgRNA counts, d5 value, item COX11_+_53045977.23-P1P2_10: sgRNA targeting COX11, GGCTCTGGCGTCCCGGATGG, SEQ ID NO: 145 (listed as DNA, chemistry not fully specified)
8887

----------
System: K562 CRISPRi cells
Test Protocol: Perturb-seq pooled growth measurement (sgRNA counts, growth phenotype γ, relative activity)
Format: cell-based, human
Measurement Parameters: γ relative to perfectly matched sgRNA (_00) of the same gene, day 10
Binarize relative_activity_day10 at 0.6; below is Satisfied, at or above is Not satisfied.

CAD_ + _27440280.23-P1P2_00 (guide GGCTGGAGAGAAGCCGGGCG; listed as DNA, chemistry not fully specified)	Not satisfied
GATA1_ −_48645022.23-P1P2_06 (guide GTGAGCTTGCGACATCCCCA; listed as DNA, chemistry not fully specified)	Satisfied
ATP5E_ −_57607036.23-P1P2_04 (guide GGTGTCCAGGAGCACTCTGT; listed as DNA, chemistry not fully specified)	Satisfied
HSPA9_ −_137911079.23-P1P2_00 (guide GGAGCTGCGCGATGCGGTGG; listed as DNA, chemistry not fully specified)	Not satisfied
POLR2H_ + _184081251.23-P1P2_08 (guide GGGGCCACGCGAGCAGCAGA; listed as DNA, chemistry not fully specified)	Satisfied
POLR2H_ + _184081251.23-P1P2_07 (guide GGGGCCACGAGTGCAGCAGA; listed as DNA, chemistry not fully specified)	Satisfied

Does CAD_ + _27440280.23-P1P2_07 (guide GGCTGGAGCGAAGCCGGGCG; listed as DNA, chemistry not fully specified) have relative_activity_day10 strictly under 0.6?
Not satisfied

Lab note: confirm whether the reported relative_activity_day10 for this substance is below 0.6, equality not counting. substance: SEC61A1_ −_127771295.23-P1_00 (guide GGCACTGACGTGTCTCTCGG; listed as DNA, chemistry not fully specified)
Not satisfied

Field: below-cutoff. Rule: recorded relative_activity_day10 strictly less than 0.6. Subject: RPS18_ + _33239917.23-P1P2_04 (guide GCTGCGATCCCGCTGGATCA; listed as DNA, chemistry not fully specified)
Satisfied

Check if relative_activity_day10 falls below 0.6 for COX11_ + _53045977.23-P1P2_05 (guide GGCTCTGGCGTCTTGGATGG; listed as DNA, chemistry not fully specified) .
Satisfied

I wonder whether POLR2H_ + _184081251.23-P1P2_12 (guide GGGGCCACGAGAGCAGGAGA; listed as DNA, chemistry not fully specified) has relative_activity_day10 below 0.6. Can you tell?
Satisfied

Is it true that relative_activity_day10 reported for GNB2L1_ + _180670873.23-P1P2_13 (guide GTGCAAGGCGGCGGCGGGAG; listed as DNA, chemistry not fully specified) is less than 0.6?
Not satisfied
